assay: Tmax in ICR mouse at 5 mg/kg, iv measured upto 24 hrs by UPLC-MS/MS analysis; type: ADME, organism-based; settings: in vivo
Measure: Tmax (min)
# value in min; strip the unit string

Quote Tmax reported for "Cn1c(NCCCCCCCNc2c3c(nc4cc(Cl)ccc24)CCCC3)nc(-c2ccncc2F)cc1=O" please.
1.98

====

assay: Half life in ICR mouse at 15 mg/kg, ip measured upto 24 hrs by UPLC-MS/MS analysis; format: ADME, organism-based; details: in vivo
Measure: half-life (h)
Return type: number; implicit unit h.

For the molecule "Cn1c(NCCCCCCCNc2c3c(nc4cc(Cl)ccc24)CCCC3)nc(-c2ccncc2F)cc1=O" , report half-life.
1.15

====

assay: Drug concentration in ICR mouse plasma at 15 mg/kg, ip measured after 4 hrs by UPLC-MS/MS analysis; assay type: ADME, organism-based
Measure: concentration at 4 h (ng/mL)
Give the quantity in ng/mL, number only.

Using the record for "Cn1c(NCCCCCCCNc2c3c(nc4cc(Cl)ccc24)CCCC3)nc(-c2ccncc2F)cc1=O" , state its measured concentration at 4 h.
3.47

====

assay: Apparent oral clearance in ICR mouse at 15 mg/kg measured upto 24 hrs by UPLC-MS/MS analysis; format: ADME, organism-based; details: in vivo
Measure: CL/F (mL/min/kg)
Report the figure in mL/min/kg without appending any unit label.

Please supply the value of reported CL/F for the item "Cn1c(NCCCCCCCNc2c3c(nc4cc(Cl)ccc24)CCCC3)nc(-c2ccncc2F)cc1=O"
0.152

====

assay: Volume of distribution in ICR mouse at 5 mg/kg, iv measured upto 24 hrs by UPLC-MS/MS analysis; assay type: ADME, organism-based; settings: in vivo
Measure: Vd (L/kg)
Record the value in L/kg, omitting the unit from your answer.

Find the measured Vd of "Cn1c(NCCCCCCCNc2c3c(nc4cc(Cl)ccc24)CCCC3)nc(-c2ccncc2F)cc1=O" and report it.
16.4

====

The reader will find pIC50 measurements below, all made with Glycogen synthase kinase-3 beta (Homo sapiens, UniProt P49841).
Formally, pIC50 is defined as -log10 of the concentration c, with c in mol/L.

// solved cases for pIC50 follow
Cn1c(NCCNc2c3c(nc4ccccc24)CCCC3)nc(-c2ccncc2F)cc1=O :: 5.93
Cn1c(NCCCCCCCNc2c3c(nc4cc(Cl)ccc24)CCCC3)nc(-c2ccncc2F)cc1=O :: 4.05
Cn1c(NCCCCCCNc2c3c(nc4ccccc24)CCCC3)nc(-c2ccncc2F)cc1=O :: 3.90

Specify measured pIC50 for "Cc1ccc2c(NCCCCCCNc3nc(-c4ccncc4F)cc(=O)n3C)c3c(nc2c1)CCCC3" .
3.62

Fill in pIC50 for record "COc1ccc2c(NCCNc3nc(-c4ccncc4F)cc(=O)n3C)c3c(nc2c1)CCCC3"
4.72

# return recorded pIC50 for entry "Cn1c(NCCCCCCCNc2c3c(nc4ccccc24)CCCC3)nc(-c2ccncc2)cc1=O"
6.48

Dear colleague, please send me the reported pIC50 for "Cn1c(NCCCCCCNc2c3c(nc4ccccc24)CCCC3)nc(-c2ccncc2)cc1=O" when you can.
6.28

Provide one value: measured pIC50 of "Cn1c(NCCNc2c3c(nc4ccccc24)CCCC3)nc(-c2ccncc2)cc1=O"
5.39

Annotate the molecule "Cn1c(NCCCCNc2c3c(nc4ccccc24)CCCC3)nc(-c2ccncc2)cc1=O" with its measured pIC50.
6.04

Indicate its recorded pIC50; the molecule in question is "Cn1c(NCCNc2c3c(nc4cc(Cl)ccc24)CCCC3)nc(-c2ccncc2F)cc1=O"
4.85

# return recorded pIC50 for entry "Cn1c(NCCCCCCNc2c3c(nc4cc(Br)ccc24)CCCC3)nc(-c2ccncc2F)cc1=O"
3.75

Give the reported pIC50 for this molecule. "Cn1c(NCCNc2c3c(nc4cc(F)ccc24)CCCC3)nc(-c2ccncc2F)cc1=O"
4.92

For the molecule "Cn1c(NCCNc2c3c(nc4ccccc24)CCCC3)nc(-c2ccncn2)cc1=O" , give its reported pIC50.
5.25

Note down pIC50 recorded for "Cn1c(NCCCCCCCNc2c3c(nc4ccc(F)cc24)CCCC3)nc(-c2ccncc2F)cc1=O"
4.02

====

assay: Drug concentration in ICR mouse brain at 15 mg/kg, ip measured after 4 hrs by UPLC-MS/MS analysis; type: ADME, organism-based; conditions: read-out: Drug uptake
Measure: concentration at 4 h

Tell us which concentration at 4 h value is on record for "Cn1c(NCCCCCCCNc2c3c(nc4cc(Cl)ccc24)CCCC3)nc(-c2ccncc2F)cc1=O"
5.99 ng/g

====

experiment: Ratio of drug concentration in brain to plasma in ICR mouse at 15 mg/kg, ip measured after 2 hrs by UPLC-MS/MS analysis; format: ADME, organism-based
Measure: Kp at 2 h
Answer with a bare number; do not write a unit.

Indicate its recorded Kp at 2 h; the molecule in question is "Cn1c(NCCCCCCCNc2c3c(nc4cc(Cl)ccc24)CCCC3)nc(-c2ccncc2F)cc1=O"
0.522

====

assay: Cmax in ICR mouse at 5 mg/kg, iv measured upto 24 hrs by UPLC-MS/MS analysis; assay type: ADME, organism-based; design: route intravenous, dose 5 mg/kg, time <=24; conditions: in vivo
Measure: Cmax (ng/mL)
Number in ng/mL, nothing else.

Identify Cmax associated with the molecule "Cn1c(NCCCCCCCNc2c3c(nc4cc(Cl)ccc24)CCCC3)nc(-c2ccncc2F)cc1=O"
2810

====

test: AUClast in ICR mouse at 15 mg/kg, ip measured upto 24 hrs by UPLC-MS/MS analysis; type: ADME, organism-based; set-up: route intraperitoneal, dose 15 mg/kg, time <=24; details: in vivo
Measure: AUC(0-t) at 24 h (ng·h/mL)
Note: unit ng·h/mL is implicit; provide only the numeric part.

Report measured AUC(0-t) at 24 h; entry is "Cn1c(NCCCCCCCNc2c3c(nc4cc(Cl)ccc24)CCCC3)nc(-c2ccncc2F)cc1=O"
1660

====

target: Glycogen synthase kinase-3 beta (Homo sapiens)
Each entry below carries its reported log10(IC50).
Reminder: these figures are log10 of reported IC50, in µM before transformation.

Cn1c(NCCCCCCCNc2c3c(nc4cc(F)ccc24)CCCC3)nc(-c2ccncc2F)cc1=O :: 2.02
Cn1c(NCCCCCCNc2c3c(nc4ccc(F)cc24)CCCC3)nc(-c2ccncc2F)cc1=O :: 2.19

Output measured log10(IC50) for this item: "Cn1c(NCCNc2c3c(nc4ccc(Cl)cc24)CCCC3)nc(-c2ccncc2F)cc1=O"
0.91

Give log10(IC50) for the following molecule: "Cn1c(NCCCCCCNc2c3c(nc4cc(Cl)ccc24)CCCC3)nc(-c2ccncc2F)cc1=O"
2.25

Retrieve log10(IC50) measured for "Cn1c(NCCCCCCCNc2c3c(nc4cc(Br)ccc24)CCCC3)nc(-c2ccncc2F)cc1=O" and print it.
1.96

Find the measured log10(IC50) of "Cc1ccc2c(NCCCCCCCNc3nc(-c4ccncc4F)cc(=O)n3C)c3c(nc2c1)CCCC3" and report it.
2.14

Return log10(IC50) (reported value) for this molecule: "Cn1c(NCCCCCNc2c3c(nc4ccccc24)CCCC3)nc(-c2ccncc2)cc1=O"
0.11

Look up and state reported log10(IC50) for "Cn1c(NCCCCCCNc2c3c(nc4cc(F)ccc24)CCCC3)nc(-c2ccncc2F)cc1=O"
2.24

Please indicate log10(IC50) recorded for "Cn1c(NCCCCCCCNc2c3c(nc4ccccc24)CCCC3)nc(-c2ccncc2F)cc1=O"
1.83

====

experiment: Drug concentration in ICR mouse brain at 15 mg/kg, ip measured after 1 hr by UPLC-MS/MS analysis; type: ADME, organism-based; settings: read-out: Drug uptake
Measure: concentration at 1 h (ng/g)
Reply with just the number (in ng/g).

Output measured concentration at 1 h for this item: "Cn1c(NCCCCCCCNc2c3c(nc4cc(Cl)ccc24)CCCC3)nc(-c2ccncc2F)cc1=O"
11.1

====

assay: Drug concentration in ICR mouse plasma at 15 mg/kg, ip measured after 0.5 hrs by UPLC-MS/MS analysis; type: ADME, organism-based
Measure: concentration at 0.5 h (ng/mL)
# output: bare number, implied unit ng/mL

Read off the recorded concentration at 0.5 h for "Cn1c(NCCCCCCCNc2c3c(nc4cc(Cl)ccc24)CCCC3)nc(-c2ccncc2F)cc1=O"
866

====

target: Glycogen synthase kinase-3 beta (Homo sapiens); assay: Inhibition of human recombinant GSK-3beta using prephosphorylated polypeptide as substrate incubated for 30 mins in presence of ATP by Kinase-Glo luminescence assay relative to control
Sequence (P49841 whole entry, looked up): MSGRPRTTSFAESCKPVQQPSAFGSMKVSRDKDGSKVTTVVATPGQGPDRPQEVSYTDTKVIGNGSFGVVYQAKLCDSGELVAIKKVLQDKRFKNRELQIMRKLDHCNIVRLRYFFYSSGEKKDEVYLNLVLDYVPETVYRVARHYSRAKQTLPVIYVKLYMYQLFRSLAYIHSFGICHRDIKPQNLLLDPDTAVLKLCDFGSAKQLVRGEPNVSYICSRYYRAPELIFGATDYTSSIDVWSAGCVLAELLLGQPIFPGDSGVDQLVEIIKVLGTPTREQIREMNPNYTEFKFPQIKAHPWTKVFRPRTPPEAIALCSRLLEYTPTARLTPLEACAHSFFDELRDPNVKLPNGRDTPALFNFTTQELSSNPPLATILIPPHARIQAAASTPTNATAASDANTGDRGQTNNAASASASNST
Measure: inhibition

Recorded results for 10 molecules are shown here.
Cn1c(NCCNc2c3c(nc4ccc(Cl)cc24)CCCC3)nc(-c2ccncn2)cc1=O :: < 50%
Cn1c(NCCCCCCNc2c3c(nc4ccc(F)cc24)CCCC3)nc(-c2ccncc2)cc1=O :: < 60%
Cn1c(NCCNc2c3c(nc4ccc(Cl)cc24)CCCC3)nc(-c2ccncc2)cc1=O :: < 50%
Cn1c(NCCNc2c3c(nc4cc(F)ccc24)CCCC3)nc(-c2ccncn2)cc1=O :: < 50%
COc1ccc2nc3c(c(NCCNc4nc(-c5ccncc5)cc(=O)n4C)c2c1)CCCC3 :: < 50%
COc1ccc2c(NCCNc3nc(-c4ccncn4)cc(=O)n3C)c3c(nc2c1)CCCC3 :: < 50%
Cn1c(NCCCCCCNc2c3c(nc4cc(F)ccc24)CCCC3)nc(-c2ccncc2)cc1=O :: < 60%
Cc1ccc2c(NCCCCCCNc3nc(-c4ccncc4)cc(=O)n3C)c3c(nc2c1)CCCC3 :: < 60%
Cn1c(NCCCCCCNc2c3c(nc4cc(Cl)ccc24)CCCC3)nc(-c2ccncc2)cc1=O :: < 60%
Cc1ccc2nc3c(c(NCCNc4nc(-c5ccncc5)cc(=O)n4C)c2c1)CCCC3 :: < 50%

Specify inhibition for "Cn1c(NCCCCCCCNc2c3c(nc4cc(F)ccc24)CCCC3)nc(-c2ccncc2)cc1=O" and stop.
< 60%

Specify inhibition for "Cc1ccc2c(NCCCCCCCNc3nc(-c4ccncc4)cc(=O)n3C)c3c(nc2c1)CCCC3" and stop.
< 60%

Specify inhibition for "Cn1c(NCCNc2c3c(nc4cc(Br)ccc24)CCCC3)nc(-c2ccncc2)cc1=O" and stop.
< 50%

Please report the measured inhibition for "Cn1c(NCCCCCCCNc2c3c(nc4cc(Br)ccc24)CCCC3)nc(-c2ccncc2)cc1=O"
< 60%

Provide measured inhibition value, entry: "Cn1c(NCCNc2c3c(nc4cc(C(F)(F)F)ccc24)CCCC3)nc(-c2ccncc2)cc1=O"
< 50%
